# systemName: 5-hydroxytryptamine receptor 4 (Homo sapiens)
# Sequence (Q13639 whole entry): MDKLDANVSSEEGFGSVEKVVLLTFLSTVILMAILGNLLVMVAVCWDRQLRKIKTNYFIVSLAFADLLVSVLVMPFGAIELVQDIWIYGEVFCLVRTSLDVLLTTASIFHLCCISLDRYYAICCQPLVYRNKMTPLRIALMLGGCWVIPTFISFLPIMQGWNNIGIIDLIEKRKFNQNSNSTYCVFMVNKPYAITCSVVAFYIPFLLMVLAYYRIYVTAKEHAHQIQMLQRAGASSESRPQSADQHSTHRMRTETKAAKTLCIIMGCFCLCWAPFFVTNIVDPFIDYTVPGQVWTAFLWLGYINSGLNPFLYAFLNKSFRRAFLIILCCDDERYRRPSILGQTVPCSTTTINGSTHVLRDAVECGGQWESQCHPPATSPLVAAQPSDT
readoutLabel: Ki (nM)
Dear colleague, please return just the value in nM, with no unit written.

Task: Find the measured Ki: item "COc1ccc2[nH]cc(CCN)c2c1" , target or system 5-hydroxytryptamine receptor 4 (Homo sapiens).
Result: 501

Task: Now give it for COc1ccc2[nH]c(=O)n(C(=O)OC3CC4CCC(C3)N4C)c2c1 (stereo not given) too.
Result: 63.1

Task: Proceed to CN1C2CCC1CC(OC(=O)c1c[nH]c3ccccc13)C2 (stereo not given)
Result: 200

Task: And CC(C)n1c(=O)n(C(=O)NC2C[C@H]3CC[C@@H](C2)N3C)c2ccccc21 (stereo not given in full) ?
Result: 79.4

Task: Proceed to "CCN(CC)CCOC(=O)c1cc(Cl)c(N)cc1OC"
Result: 6.3
